Below is a list of entries, each paired with its recorded Tmax value.
test: In vivo pharmacokinetic comparison study in SD rats (gavage, LC-MS/MS plasma concentration); details: female, SD (Sprague-Dawley), rat, plasma, po, 10 mg/kg, female rats, gavage 10 mg/kg suspension; read-out: time to peak Tmax

# molecule, result
data = [
    ("CCOc1cc(C(CS(C)(=O)=O)N2C(=O)c3cccc(NC(C)=O)c3C2=O)ccc1OC (single isomer, unassigned; (+)) [Form II]", "4 to 6 h"),
]

Please examine the following record next.
### Prompt I have this molecule here, CCOc1cc([C@@H](CS(C)(=O)=O)N2C(=O)c3cccc(NC(C)=O)c3C2=O)ccc1OC [Form B] , and I need its recorded Tmax.
### Response 2 to 6 h
